targetOrSystem: UniProt P23458
# log10 of IC50 listing for each entry below
experimentalReadout: log10 of IC50 (log10 of the value in nM)

# entrySmiles, log10 of IC50
measured = [
    ("O=C1NC(=O)C(c2c[nH]c3ccccc23)=C1Nc1ccc(OCCNc2ccnc(F)c2)cc1", 3.31),
    ("O=C1NC(=O)C(c2ccccc2)=C1Nc1cccc(OCCNc2ccnc(F)c2)c1", 3.34),
    ("O=C1NC(=O)C(c2c[nH]c3ccccc23)=C1Nc1ccc(OCCCn2ccnc2)cc1", 3.94),
    ("CC(C)(O)C(=O)N1CCN(c2ccc(C(F)(F)F)c(C3=C(c4c[nH]c5ccccc45)C(=O)NC3=O)c2)CC1", 2.49),
    ("O=C1NC(=O)C(c2c[nH]c3ccccc23)=C1Nc1cccc(O[C@@H]2CCN(c3ccnc(F)c3)C2)c1", 3.69),
    ("Cn1cc(C2=C(Nc3cccc(OCCNc4ccnc(F)c4)c3)C(=O)NC2=O)c2ccccc21", 3.25),
]

###

Target or system Non-receptor tyrosine-protein kinase TYK2 (Homo sapiens, UniProt P29597); recorded quantity pIC50.
pIC50: −log10 of the molar value.

# molecule, pIC50
measured = [
    ("O=C1NC(=O)C(c2c[nH]c3ccccc23)=C1Nc1ccc(OCCCNc2ccnc(F)c2)cc1", "< 5.00"),
    ("O=C1C=C(Nc2cccc(OCCNc3ccnc(F)c3)c2)C(=O)N1", "< 5.00"),
    ("O=C1NC(=O)C(c2c[nH]c3ccccc23)=C1Nc1cccc(OC2CCCN(c3ccnc(F)c3)C2)c1 (racemic)", "< 5.00"),
    ("O=C1NC(=O)C(c2c[nH]c3ccccc23)=C1Nc1ccc(OCCCn2ccnc2)cc1", "< 5.00"),
    ("O=C1NC(=O)C(c2c[nH]c3ccccc23)=C1Nc1ccccc1OCCNc1ccnc(F)c1", "< 5.00"),
    ("O=C1NC(=O)C(c2c[nH]c3ccccc23)=C1Nc1ccc(OCCn2ccnc2)cc1", 5.13),
    ("O=C1NC(=O)C(c2c[nH]c3ccccc23)=C1Nc1cccc(OCCn2ccnc2)c1", "< 5.00"),
    ("O=C1NC(=O)C(c2ccccc2)=C1Nc1cccc(OCCNc2ccnc(F)c2)c1", "< 5.00"),
    ("O=C1NC(=O)C(c2c[nH]c3ccccc23)=C1Nc1ccccc1OCCn1ccnc1", "< 5.00"),
    ("O=C1NC(=O)C(c2c[nH]c3ccccc23)=C1Nc1cccc(O[C@@H]2CCN(c3ccnc(F)c3)C2)c1", "< 5.00"),
    ("CN(CCOc1cccc(NC2=C(c3c[nH]c4ccccc34)C(=O)NC2=O)c1)c1ccnc(F)c1", 6.00),
]

###

Target or system Tyrosine-protein kinase JAK3 (Homo sapiens, UniProt P52333); recorded quantity IC50.
experimentalReadout: IC50

# entrySmiles, experimentalReadout, observedResult
rows = [
    ("O=C1NC(=O)C(c2c[nH]c3ccccc23)=C1Nc1cccc(OCCn2ccnc2)c1", "IC50", "1790 nM"),
    ("O=C1NC(=O)C(c2c[nH]c3ccccc23)=C1Nc1cccc(OCCNc2cnccn2)c1", "IC50", "408 nM"),
    ("O=C1NC(=O)C(c2c[nH]c3ccccc23)=C1Nc1cccc(OC2CCN(c3ccnc(F)c3)CC2)c1", "IC50", "625 nM"),
    ("O=C1NC(=O)C(c2c[nH]c3ccccc23)=C1Nc1ccccc1OCCNc1ccnc(F)c1", "IC50", "> 10000 nM"),
    ("O=C1NC(=O)C(c2c[nH]c3ccccc23)=C1Nc1cccc(OCCNc2ccnc(F)c2)c1", "IC50", "29 nM"),
    ("O=C1NC(=O)C(c2c[nH]c3ccccc23)=C1Nc1ccccc1OCCn1ccnc1", "IC50", "9370 nM"),
    ("O=C1NC(=O)C(c2c[nH]c3ccccc23)=C1Nc1cccc(C2CCN(c3ccnc(F)c3)CC2)c1", "IC50", "> 10000 nM"),
    ("O=C1NC(=O)C(c2c[nH]c3ccccc23)=C1Nc1cccc(OC2CN(c3ccnc(F)c3)C2)c1", "IC50", "200 nM"),
    ("O=C1NC(=O)C(c2c[nH]c3ccccc23)=C1Nc1cccc(OCCNc2cc(F)cc(F)c2)c1", "IC50", "1390 nM"),
    ("CN(CCOc1cccc(NC2=C(c3c[nH]c4ccccc34)C(=O)NC2=O)c1)c1ccnc(F)c1", "IC50", "46 nM"),
    ("Cn1cc(C2=C(Nc3cccc(OCCNc4ccnc(F)c4)c3)C(=O)NC2=O)c2ccccc21", "IC50", "179 nM"),
    ("O=C1NC(=O)C(c2c[nH]c3ccccc23)=C1Nc1ccc(OCCCn2ccnc2)cc1", "IC50", "1150 nM"),
]

###

targetOrSystem: Tyrosine-protein kinase JAK1 (Homo sapiens)
Sequence (P23458 whole entry): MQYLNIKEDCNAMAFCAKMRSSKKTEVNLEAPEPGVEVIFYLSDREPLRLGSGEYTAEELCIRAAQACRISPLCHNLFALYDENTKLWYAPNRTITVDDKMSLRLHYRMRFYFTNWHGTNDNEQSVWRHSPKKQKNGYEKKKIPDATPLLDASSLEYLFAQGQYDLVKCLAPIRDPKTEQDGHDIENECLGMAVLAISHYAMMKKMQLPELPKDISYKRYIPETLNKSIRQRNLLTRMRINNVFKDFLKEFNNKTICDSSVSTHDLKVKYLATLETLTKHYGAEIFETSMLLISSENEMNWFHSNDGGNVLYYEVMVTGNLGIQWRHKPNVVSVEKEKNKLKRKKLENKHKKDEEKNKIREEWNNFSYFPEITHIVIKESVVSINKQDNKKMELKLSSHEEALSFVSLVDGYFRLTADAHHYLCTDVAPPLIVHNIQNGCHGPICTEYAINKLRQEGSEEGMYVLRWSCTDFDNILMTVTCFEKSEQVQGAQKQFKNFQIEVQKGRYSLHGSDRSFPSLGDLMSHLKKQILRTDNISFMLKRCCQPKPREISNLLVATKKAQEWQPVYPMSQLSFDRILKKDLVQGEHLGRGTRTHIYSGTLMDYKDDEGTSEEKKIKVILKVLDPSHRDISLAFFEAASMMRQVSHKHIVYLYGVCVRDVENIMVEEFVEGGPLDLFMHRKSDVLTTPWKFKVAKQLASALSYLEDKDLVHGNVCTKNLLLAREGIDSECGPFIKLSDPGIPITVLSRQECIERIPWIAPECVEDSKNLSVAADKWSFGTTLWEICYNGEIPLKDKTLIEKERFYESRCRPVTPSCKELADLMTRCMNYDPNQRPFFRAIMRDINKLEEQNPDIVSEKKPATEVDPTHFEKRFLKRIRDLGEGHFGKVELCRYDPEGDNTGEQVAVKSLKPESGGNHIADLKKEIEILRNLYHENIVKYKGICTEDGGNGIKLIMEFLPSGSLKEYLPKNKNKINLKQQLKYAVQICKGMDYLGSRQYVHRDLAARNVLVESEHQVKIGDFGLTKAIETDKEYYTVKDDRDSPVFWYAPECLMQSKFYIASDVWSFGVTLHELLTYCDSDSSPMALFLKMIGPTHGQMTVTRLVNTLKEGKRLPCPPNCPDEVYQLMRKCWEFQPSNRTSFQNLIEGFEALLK
pIC50: −log10 of the molar value.

# compound, targetOrSystem, inequalityOperator, pIC50
rows = [
    ("O=C1NC(=O)C(c2c[nH]c3ccccc23)=C1Nc1cccc(OCCCn2ccnc2)c1", "Tyrosine-protein kinase JAK1 (Homo sapiens)", "=", 6.52),
    ("O=C1NC(=O)C(c2c[nH]c3ccccc23)=C1Nc1cccc(O[C@H]2CCN(c3ccnc(F)c3)C2)c1", "Tyrosine-protein kinase JAK1 (Homo sapiens)", "=", 6.20),
    ("O=C1NC(=O)C(c2c[nH]c3ccccc23)=C1Nc1cccc(OC2CCCN(c3ccnc(F)c3)C2)c1 (racemic)", "Tyrosine-protein kinase JAK1 (Homo sapiens)", "<", 5.00),
    ("O=C1NC(=O)C(c2c[nH]c3ccccc23)=C1Nc1cccc(OC2CCN(c3ccnc(F)c3)C2)c1 (racemic)", "Tyrosine-protein kinase JAK1 (Homo sapiens)", "=", 6.25),
    ("O=C1NC(=O)C(c2c[nH]c3ccccc23)=C1Nc1cccc(OCCNc2ccnc(F)c2)c1", "Tyrosine-protein kinase JAK1 (Homo sapiens)", "=", 6.37),
]

###

Target or system Tyrosine-protein kinase JAK1 (Homo sapiens, UniProt P23458); recorded quantity IC50.

# entrySmiles, targetOrSystem, IC50
data = [
    ("O=C1C=C(Nc2cccc(OCCNc3ccnc(F)c3)c2)C(=O)N1", "Tyrosine-protein kinase JAK1 (Homo sapiens, UniProt P23458)", "> 10 µM"),
    ("O=C1NC(=O)C(c2c[nH]c3ccccc23)=C1Nc1cccc(C2CCN(c3ccnc(F)c3)CC2)c1", "Tyrosine-protein kinase JAK1 (Homo sapiens, UniProt P23458)", "> 10 µM"),
    ("O=C1NC(=O)C(c2c[nH]c3ccccc23)=C1Nc1ccccc1OCCn1ccnc1", "Tyrosine-protein kinase JAK1 (Homo sapiens, UniProt P23458)", "> 10 µM"),
]
